assay: xn = mol fraction of the nth substance listed; conditions: 303.15 K; 100 kPa; Liquid; Alternating current cell with electrodes; x1 = 0.25

>  <molecule>
CCCC[N+](CCCC)(CCCC)Cc1ccccc1.[Cl-] [benzyltributylammonium chloride] + OCCOCCOCCO

>  <output-unit>
S/m

>  <electrical conductivity>
0.035

$$$$
>  <molecule>
CCCC[N+](CCCC)(CCCC)Cc1ccccc1.[Cl-] [benzyltributylammonium chloride] + OCCO

>  <output-unit>
S/m

>  <electrical conductivity>
0.081

$$$$
>  <molecule>
C[N+](C)(C)Cc1ccccc1.[Cl-] [trimethylbenzylammonium chloride] + OCC(O)CO

>  <output-unit>
S/m

>  <electrical conductivity>
0.055

$$$$
>  <molecule>
CCCC[N+](CCCC)(CCCC)Cc1ccccc1.[Cl-] [benzyltributylammonium chloride] + OCCOCCO

>  <output-unit>
S/m

>  <electrical conductivity>
0.052

$$$$
>  <molecule>
C[N+](C)(C)Cc1ccccc1.[Cl-] [trimethylbenzylammonium chloride] + OCCO

>  <output-unit>
S/m

>  <electrical conductivity>
0.552

$$$$
>  <molecule>
C[N+](C)(C)Cc1ccccc1.[Cl-] [trimethylbenzylammonium chloride] + OCCOCCO

>  <output-unit>
S/m

>  <electrical conductivity>
0.201

$$$$
>  <molecule>
C[N+](C)(C)Cc1ccccc1.[Cl-] [trimethylbenzylammonium chloride] + OCCOCCOCCO

>  <output-unit>
S/m

>  <electrical conductivity>
0.124

$$$$
>  <molecule>
CCCC[N+](CCCC)(CCCC)Cc1ccccc1.[Cl-] [benzyltributylammonium chloride] + OCC(O)CO

>  <output-unit>
S/m

>  <electrical conductivity>
0.013

$$$$

* * *

assay: xn = mol fraction of the nth substance listed; conditions: 343.15 K; 100 kPa; Liquid; Falling or rolling sphere viscometry; x1 = 0.25

>  <compound>
CCCC[N+](CCCC)(CCCC)Cc1ccccc1.[Cl-] [benzyltributylammonium chloride] + OCCOCCOCCO

>  <viscosity (mPa·s)>
28.3

$$$$
>  <compound>
CCCC[N+](CCCC)(CCCC)Cc1ccccc1.[Cl-] [benzyltributylammonium chloride] + OCC(O)CO

>  <viscosity (mPa·s)>
105

$$$$
>  <compound>
CCCC[N+](CCCC)(CCCC)Cc1ccccc1.[Cl-] [benzyltributylammonium chloride] + OCCOCCO

>  <viscosity (mPa·s)>
32.76

$$$$
>  <compound>
C[N+](C)(C)Cc1ccccc1.[Cl-] [trimethylbenzylammonium chloride] + OCC(O)CO

>  <viscosity (mPa·s)>
46.3

$$$$

* * *

Below is a list of entries, each paired with its recorded speed of sound value.
experiment: xn = mol fraction of the nth substance listed; conditions: 328.15 K; 100 kPa; Liquid; Single path-length method; x1 = 0.25
quantity-kind: speed of sound (m/s)

>  <molecule>
CCCC[N+](CCCC)(CCCC)Cc1ccccc1.[Cl-] [benzyltributylammonium chloride] + OCCO

>  <readout-value>
1590.5

$$$$
>  <molecule>
C[N+](C)(C)Cc1ccccc1.[Cl-] [trimethylbenzylammonium chloride] + OCCOCCO

>  <readout-value>
1668.7

$$$$
>  <molecule>
CCCC[N+](CCCC)(CCCC)Cc1ccccc1.[Cl-] [benzyltributylammonium chloride] + OCC(O)CO

>  <readout-value>
1696

$$$$
>  <molecule>
CCCC[N+](CCCC)(CCCC)Cc1ccccc1.[Cl-] [benzyltributylammonium chloride] + OCCOCCOCCO

>  <readout-value>
1571.2

$$$$
>  <molecule>
C[N+](C)(C)Cc1ccccc1.[Cl-] [trimethylbenzylammonium chloride] + OCCOCCOCCO

>  <readout-value>
1647.2

$$$$
>  <molecule>
C[N+](C)(C)Cc1ccccc1.[Cl-] [trimethylbenzylammonium chloride] + OCC(O)CO

>  <readout-value>
1860

$$$$
>  <molecule>
CCCC[N+](CCCC)(CCCC)Cc1ccccc1.[Cl-] [benzyltributylammonium chloride] + OCCOCCO

>  <readout-value>
1575.3

$$$$
>  <molecule>
C[N+](C)(C)Cc1ccccc1.[Cl-] [trimethylbenzylammonium chloride] + OCCO

>  <readout-value>
1743

$$$$
